Reported melting point values are given for each entry in this list.
Property label: melting point

Compound: CC(C)(C)NC(=O)N(Cc1ccccc1)CC(O)C(Cc1ccccc1)NC(=O)C(CC(N)=O)NC(=O)c1ccc2ccccc2n1 (stereo not drawn)
Property label: melting point
Measured value: 110 to 112 °C
--
Compound: Nc1cc(Br)c(Br)cc1N
Property label: melting point
Measured value: 189 to 190 °C
--
Compound: O=C(NCCCN1CCOCC1)c1ccccc1C(c1ccc(O)cc1)c1ccc(O)cc1
Property label: melting point
Measured value: 120 to 122 °C

====

melting point values by entry

Compound: CC1c2cccc3c2N(CC3)c2ccccc2N1C(=O)CCN(C)C (stereo not drawn)
melting point: 138 to 142 °C
//
Compound: Cc1cccc2c1C(=O)CC2=O
melting point: 125 to 128 °C
//
Compound: Nc1ccnc(N2CCC(c3ccc(S(N)(=O)=O)cc3)CC2)c1
melting point: 290 to 295 °C
//
Compound: CCCCc1nn(Cc2ccc(C#N)cc2)c2ccccc2c1=O
melting point: 180 °C
//
Compound: CSc1ccc(-c2nc(SC)c(C#N)c(=O)n2-c2ccc(C)c(C)c2)cc1
melting point: 234 to 236 °C
//
Compound: COC=C(C#N)Cc1ccc(OC)c(OC)c1
melting point: 64 to 65 °C
//
Compound: CC(C(=O)O)S(=O)(=O)c1ccc2c(-c3ccccc3F)noc2c1Cl (stereo not drawn)
melting point: 220 to 225 °C
//
Compound: CON(C)C(=O)/C=C/C(=C(c1ccc(F)cc1)c1ccc(F)cc1)C(C)C
melting point: 109 to 110 °C
